- Tested on: U2OS
- TEST SUMMARY: Multiplex assay against U2OS
- Assay type: toxicity, cell-based
- CONDITIONS: human, 12 h, 1 µM, compound concentration 1 uM, replicate 2
QUANTITY MEASURED: Population Pyknosed Nuclei (%)
Respond with the bare value in %.

Supply recorded Population Pyknosed Nuclei (%) for O=C1[C@H](Cc2ccc(O)cc2)N2C(=O)CCN(C(=O)NCc3ccccc3)[C@H]2CN1Cc1cccc2ccccc12 here.
11

Supply recorded Population Pyknosed Nuclei (%) for Cc1cccc(NC(=O)CN2CCC(c3ccccn3)CC2)c1.Cl.Cl here.
6

Supply recorded Population Pyknosed Nuclei (%) for O=C(NCCN1CCC(n2c(=O)[nH]c3cc(Cl)ccc32)CC1)c1ccc(F)cc1 [HALOPEMIDE] here.
7

Supply recorded Population Pyknosed Nuclei (%) for Cl.NCCc1ccc(O)c(O)c1 [DOPAMINE HYDROCHLORIDE] here.
11

Supply recorded Population Pyknosed Nuclei (%) for Cc1onc(-c2ccccc2Cl)c1C(=O)N(C)c1ccc(Cl)cc1 here.
10

Supply recorded Population Pyknosed Nuclei (%) for Cc1noc(-c2ccc(-c3ccc(CC(=O)O)cc3)cc2)c1NC(=O)O[C@H](C)c1ccccc1Cl here.
7

Supply recorded Population Pyknosed Nuclei (%) for CC(=O)Nc1cccc2c1c(Sc1ccc(Cl)cc1)c(C)n2CC(=O)O here.
7

Supply recorded Population Pyknosed Nuclei (%) for COc1cccc2c1c(NS(=O)(=O)c1ccc(Cl)s1)nn2Cc1cccc(CNC(=O)C(C)(C)O)c1 here.
5

Supply recorded Population Pyknosed Nuclei (%) for CN(C)C(=O)Cn1cc(-c2ccc(-c3cncc4ccccc34)cc2)cn1 here.
11

Supply recorded Population Pyknosed Nuclei (%) for CN[C@@H](C)C(=O)N[C@H](C(=O)N1CCC[C@H]1C(=O)Nc1snnc1-c1ccccc1)C1CCCCC1 here.
17

Supply recorded Population Pyknosed Nuclei (%) for O=C(CCCc1ccccc1)Nc1nc2ccccc2c(=O)s1 here.
7

Supply recorded Population Pyknosed Nuclei (%) for COC[C@@H](c1ccc(C(F)(F)F)cc1)N1CCN(C2(C)CCN(C(=O)c3c(C)ncnc3C)CC2)C[C@@H]1C.O=C(O)/C=C\C(=O)O [VICRIVIROC MALEATE] here.
10

Supply recorded Population Pyknosed Nuclei (%) for CCCCCC(O)/C=C/[C@H]1C(=O)CC(O)C1C/C=C\CCCC(=O)O (some centres undefined) here.
8

Supply recorded Population Pyknosed Nuclei (%) for Cc1c(CC(=O)O)c2cccnc2n1Cc1ccc(S(C)(=O)=O)cc1C(F)(F)F here.
5

----------
- Tested on: U2OS
- TEST SUMMARY: Multiplex assay against U2OS
- Format: toxicity, cell-based
- CONDITIONS: human, 12 h, 1 µM, compound concentration 1 uM, replicate 2
# Population Tubulin-Different-Phenotype (%) >= 7% gives Condition met, anything below gives Condition not met

Has CCCCCC(O)/C=C/[C@H]1C(=O)CC(O)C1C/C=C\CCCC(=O)O (stereo not given in full) a recorded Population Tubulin-Different-Phenotype (%) greater than or equal to 7%?
Condition met

Has C[C@H](N)COC(=O)[C@@H](CCCCN)NC(=O)Cc1c(-c2ccc3ccccc3c2)[nH]c2c1ccc1ccccc12 a recorded Population Tubulin-Different-Phenotype (%) greater than or equal to 7%?
Condition not met

Has O=C(CCCc1ccccc1)Nc1nc2ccccc2c(=O)s1 a recorded Population Tubulin-Different-Phenotype (%) greater than or equal to 7%?
Condition not met

Has Cc1c(CC(=O)O)c2cccnc2n1Cc1ccc(S(C)(=O)=O)cc1C(F)(F)F a recorded Population Tubulin-Different-Phenotype (%) greater than or equal to 7%?
Condition met

----------
- Test system: HEK-293T
- TEST SUMMARY: Multiplex assay against HEK293T
- Assay type: toxicity, cell-based
- CONDITIONS: human, 24 h, 1 µM, compound concentration 1 uM, replicate 1
QUANTITY MEASURED: Population Healthy Nuclei (%)
Respond with the bare value in %.

Supply recorded Population Healthy Nuclei (%) for CC(=O)Nc1cccc2c1c(Sc1ccc(Cl)cc1)c(C)n2CC(=O)O [AZD1981] here.
80

Supply recorded Population Healthy Nuclei (%) for Cc1c(CC(=O)O)c2cccnc2n1Cc1ccc(S(C)(=O)=O)cc1C(F)(F)F [FEVIPIPRANT] here.
81

Supply recorded Population Healthy Nuclei (%) for CCCOc1ccc2[nH]cc(C3=CCNCC3)c2n1.Cl here.
76

Supply recorded Population Healthy Nuclei (%) for N#Cc1cc(F)cc(-c2nc(-c3ccc(F)cn3)no2)c1 here.
77

Supply recorded Population Healthy Nuclei (%) for Cc1cccc(NC(=O)CN2CCC(c3ccccn3)CC2)c1.Cl.Cl here.
81

Supply recorded Population Healthy Nuclei (%) for O=C(CCCc1ccccc1)Nc1nc2ccccc2c(=O)s1 here.
81

Supply recorded Population Healthy Nuclei (%) for CCCCC1=NC2(CCCC2)C(=O)N1Cc1ccc(-c2ccccc2-c2nnn[nH]2)cc1 [IRBESARTAN] here.
79

Supply recorded Population Healthy Nuclei (%) for O=C1[C@H](Cc2ccc(O)cc2)N2C(=O)CCN(C(=O)NCc3ccccc3)[C@H]2CN1Cc1cccc2ccccc12 here.
80

Supply recorded Population Healthy Nuclei (%) for Cc1noc(-c2ccc(-c3ccc(CC(=O)O)cc3)cc2)c1NC(=O)O[C@H](C)c1ccccc1Cl here.
79

----------
For each entry below, report its Population Hoechst High Intensity Objects (%) value.
- Test system: Fibroblast
- TEST SUMMARY: Multiplex assay against human fibroblast
- Assay type: toxicity, cell-based
- CONDITIONS: 24 h, 10 µM, compound concentration 10 uM, replicate 2
Respond with the bare value in %.

Supply recorded Population Hoechst High Intensity Objects (%) for Cl.N=C(N)NC(=O)Cc1c(Cl)cccc1Cl [GUANFACINE HYDROCHLORIDE] here.
4

Supply recorded Population Hoechst High Intensity Objects (%) for C[C@H](N)COC(=O)[C@@H](CCCCN)NC(=O)Cc1c(-c2ccc3ccccc3c2)[nH]c2c1ccc1ccccc12 here.
6

Supply recorded Population Hoechst High Intensity Objects (%) for CC[C@@H](C)Nc1nc(C)nc2c(-c3ccc(OC)nc3C)c(C)nn12 here.
7

Supply recorded Population Hoechst High Intensity Objects (%) for N#Cc1c(Oc2cccc(OS(=O)(=O)CCCC(F)(F)F)c2)cccc1C(F)(F)F here.
8

Supply recorded Population Hoechst High Intensity Objects (%) for CCCCC1=NC2(CCCC2)C(=O)N1Cc1ccc(-c2ccccc2-c2nnn[nH]2)cc1 here.
2

Supply recorded Population Hoechst High Intensity Objects (%) for CC(/C=C1\SC(=S)N(CCCC(=O)Nc2ccc(C(=O)O)c(O)c2)C1=O)=C\c1ccccc1 here.
4

Supply recorded Population Hoechst High Intensity Objects (%) for Cc1cccc(NC(=O)CN2CCC(c3ccccn3)CC2)c1.Cl.Cl here.
0

Supply recorded Population Hoechst High Intensity Objects (%) for Cc1cnc(-c2cc(N3CCN(C(=O)CCS(C)(=O)=O)CC3)ncc2Cl)c(C)c1 here.
4

Supply recorded Population Hoechst High Intensity Objects (%) for CCCCCC(O)/C=C/[C@H]1C(=O)CC(O)C1C/C=C\CCCC(=O)O (some centres undefined) here.
4

----------
For each entry below, report its Population Mitochondria Different-Phenotype (%) value.
- Tested on: HEK-293T
- TEST SUMMARY: Multiplex assay against HEK293T
- Assay type: toxicity, cell-based
- CONDITIONS: human, 12 h, 1 µM, compound concentration 1 uM, replicate 1
Respond with the bare value in %.

Supply recorded Population Mitochondria Different-Phenotype (%) for O=C1[C@H](Cc2ccc(O)cc2)N2C(=O)CCN(C(=O)NCc3ccccc3)[C@H]2CN1Cc1cccc2ccccc12 here.
54

Supply recorded Population Mitochondria Different-Phenotype (%) for CC(/C=C1\SC(=S)N(CCCC(=O)Nc2ccc(C(=O)O)c(O)c2)C1=O)=C\c1ccccc1 here.
41

Supply recorded Population Mitochondria Different-Phenotype (%) for CC(C)(C)c1cc(NC(=O)Nc2ccc(-c3cn4c(n3)sc3cc(OCCN5CCOCC5)ccc34)cc2)no1 here.
40

Supply recorded Population Mitochondria Different-Phenotype (%) for NCCc1cn(S(=O)(=O)c2c(Cl)nc3sccn23)c2ccccc12.O=C(O)C(=O)O here.
53

Supply recorded Population Mitochondria Different-Phenotype (%) for Cc1cccc(NC(=O)CN2CCC(c3ccccn3)CC2)c1.Cl.Cl here.
54

Supply recorded Population Mitochondria Different-Phenotype (%) for Cl.NCCc1ccc(O)c(O)c1 [DOPAMINE HYDROCHLORIDE] here.
54

Supply recorded Population Mitochondria Different-Phenotype (%) for COc1cccc2c1c(NS(=O)(=O)c1ccc(Cl)s1)nn2Cc1cccc(CNC(=O)C(C)(C)O)c1 here.
39

Supply recorded Population Mitochondria Different-Phenotype (%) for CN[C@@H](C)C(=O)N[C@H](C(=O)N1CCC[C@H]1C(=O)Nc1snnc1-c1ccccc1)C1CCCCC1 here.
41

----------
For each entry below, report its Population Normal (%) value.
- Test system: Fibroblast
- TEST SUMMARY: Multiplex assay against human fibroblast
- Format: toxicity, cell-based
- CONDITIONS: 24 h, 1 µM, compound concentration 1 uM, replicate 1
Respond with the bare value in %.

Supply recorded Population Normal (%) for COc1cccc2c1c(NS(=O)(=O)c1ccc(Cl)s1)nn2Cc1cccc(CNC(=O)C(C)(C)O)c1 here.
97

Supply recorded Population Normal (%) for NCCc1cn(S(=O)(=O)c2c(Cl)nc3sccn23)c2ccccc12.O=C(O)C(=O)O here.
96

Supply recorded Population Normal (%) for CC(=O)Nc1cccc2c1c(Sc1ccc(Cl)cc1)c(C)n2CC(=O)O here.
93

Supply recorded Population Normal (%) for O=C1[C@H](Cc2ccc(O)cc2)N2C(=O)CCN(C(=O)NCc3ccccc3)[C@H]2CN1Cc1cccc2ccccc12 here.
96

Supply recorded Population Normal (%) for CCc1cc2cc(NS(=O)(=O)c3ccc(C#N)cc3)ccc2n(CC)c1=O here.
94

Supply recorded Population Normal (%) for CCCCC(=O)N(Cc1ccc(-c2ccccc2-c2nnn[nH]2)cc1)[C@H](C(=O)O)C(C)C here.
99

Supply recorded Population Normal (%) for C[C@H](N)COC(=O)[C@@H](CCCCN)NC(=O)Cc1c(-c2ccc3ccccc3c2)[nH]c2c1ccc1ccccc12 here.
96

Supply recorded Population Normal (%) for Cl.NCCc1ccc(O)c(O)c1 [DOPAMINE HYDROCHLORIDE] here.
99

Supply recorded Population Normal (%) for CC(C)c1noc(N2CCC(COc3ccc(-c4ccc(S(C)(=O)=O)cc4)nc3)CC2)n1 here.
96

Supply recorded Population Normal (%) for CCCCC1=NC2(CCCC2)C(=O)N1Cc1ccc(-c2ccccc2-c2nnn[nH]2)cc1 here.
97

Supply recorded Population Normal (%) for Cc1cccc(NC(=O)CN2CCC(c3ccccn3)CC2)c1.Cl.Cl here.
97

Supply recorded Population Normal (%) for Cl.N=C(N)NC(=O)Cc1c(Cl)cccc1Cl [GUANFACINE HYDROCHLORIDE] here.
98

Supply recorded Population Normal (%) for O=C(NCCN1CCC(n2c(=O)[nH]c3cc(Cl)ccc32)CC1)c1ccc(F)cc1 [HALOPEMIDE] here.
96

Supply recorded Population Normal (%) for CC(C)COc1ccc(CNC(=O)N(Cc2ccc(F)cc2)C2CCN(C)CC2)cc1 here.
97

Supply recorded Population Normal (%) for N#Cc1cc(F)cc(-c2nc(-c3ccc(F)cn3)no2)c1 here.
97

Supply recorded Population Normal (%) for COc1ccccc1N1CCN(C[C@@H](C(=O)NC(C)(C)C)c2ccccc2)CC1.Cl.Cl here.
97

Supply recorded Population Normal (%) for Cc1onc(-c2ccccc2Cl)c1C(=O)N(C)c1ccc(Cl)cc1 here.
92

Supply recorded Population Normal (%) for Cc1noc(-c2ccc(-c3ccc(CC(=O)O)cc3)cc2)c1NC(=O)O[C@H](C)c1ccccc1Cl here.
100

Supply recorded Population Normal (%) for CCCCCC(O)/C=C/[C@H]1C(=O)CC(O)C1C/C=C\CCCC(=O)O (some centres undefined) here.
99

The reported measurements were obtained from ChEMBL document CHEMBL5058577.
